biological target: T1, neuropilin-1 (NRP1) on HEK293 cells overexpressing NRP1 (UniProt O14786 22-923, limits assumed); assay: flow cytometry, HEK293-NRP1 vs HEK293
T1 construct: whole, on cells
measured parameter: 100 nM FACS (MFI Ratio)
The answer should be a number; do not append a unit.

1. NRP1-30 (VHH) VHH: EVQLVESGGGLVQPGGSLRLSCAASGRTLSSYNMGWFRQAPGKEREFVARIWPGGGTTYADSVKGRFTISADNSKNTAYLQMNSLKPEDTAVYYCARDYFGSGSYYDWGQGTLVTVSS = 40.2
2. NRP1-217 (antibody, IgG2, V domains shown) VH: EVQLLESGGGLVQPGGSLRLSCAASGFTFGRYAMSWVRQAPGKGLEWVSSISGSGGSTYYADSVKGRFTISRDNSKNTLYLQMNSLRAEDTAVYYCARQRIKPNTPRESFFRRAYSYYGMDVWGQGTLVTVSS VL: DIQMTQSPSSLSASVGDRVTITCRTSQRISTSLNWYQQKPGKAPKLLIYGASNLQSGAPSRFSGSGSGTDFTLTISSLQPEDFATYYCQQSYFTPITFGGGTKVEIK = 2.8

Request: Any idea what 100 nM FACS (MFI Ratio) was measured for NRP1-63 (VHH) VHH: EVQLVESGGGLVQPGGSLRLSCAASGTFGSYTMGWFRQAPGKERELVATIWWTFDAPYYADSVKGRFTISADNSKNTAYLQMNSLKPEDTAVYYCAAYQAGWGDWGQGTLVTVSS ?
Result: 8.3
